Where these numbers come from: ChEMBL document CHEMBL1143608

Assay Remarks: Area under curve at 50 mg/kg upon subcutaneous administration was determined in mouse; n = 5
Assay type: ADME, organism-based
Parameters: dose 50 mg/kg, route subcutaneous
Test Settings: in vivo, sc
Recorded Metric: AUC (ng·h/mL)
# value in ng·h/mL; strip the unit string

compound="C[C@]12CCC(=O)C=C1CCC1C2CC[C@]2(C)C(n3cnc4ccccc43)=CCC12 (some centres not stated)" recorded_metric=AUC quantity_unit=ng·h/mL experimental_value=10800

C[C@]12CC[C@H](O)CC1=CCC1C2CC[C@]2(C)C(n3cnc4ccccc43)=CCC12 (some centres not stated) yielded AUC of 24000

* * *

Assay Remarks: Time required for maximum concentration at 100 mg/kg upon subcutaneous administration was determined in mouse; n = 5
Assay type: ADME, organism-based
Design: dose 100 mg/kg, route subcutaneous
Test Settings: in vivo, sc
Recorded Metric: Tmax (min)
# value in min; strip the unit string

C[C@]12CC[C@H](O)CC1=CCC1C2CC[C@]2(C)C(n3cnc4ccccc43)=CCC12 (stereo partly specified) yielded Tmax of 30
